Catalogue of IC50 readings, one per entry.
# System: PC-3
# Assay Overview: Cytotoxicity against human androgen-independent PC3 cells by MTT assay
# Format: functional, cell-based
Please reply with the bare figure in µM and do not write the unit itself.

Compound: CC(O)(CSc1ccc(Cl)cc1)c1nc(-c2ccc([N+](=O)[O-])c(C(F)(F)F)c2)no1 (stereo not drawn)
Numeric Result: 3
//
Compound: CC(O)(CSc1ccc(F)cc1)c1nc(-c2ccc(F)c(Cl)c2)no1 (stereo not drawn)
Numeric Result: 11.5
//
Compound: CC(O)(CSc1ccc(Cl)cc1)c1nc(-c2ccc(F)c(Cl)c2)no1 (stereo not drawn)
Numeric Result: 10
//
Compound: COc1cccc2c1C(=O)c1c(O)c3c(c(O)c1C2=O)C[C@@](O)(C(=O)CO)C[C@@H]3O[C@H]1C[C@H](N)[C@H](O)[C@H](C)O1
Numeric Result: 1.05
//
Compound: CC(O)(CS(=O)(=O)c1ccc(F)cc1)C(=O)Nc1ccc(C#N)c(C(F)(F)F)c1 (stereo not drawn) [BICALUTAMIDE]
Numeric Result: 77
//
Compound: CC(O)(CSc1ccccc1)c1nc(-c2ccc([N+](=O)[O-])c(C(F)(F)F)c2)no1 (stereo not drawn)
Numeric Result: 3.5
//
Compound: CC(O)(CSc1ccc(F)cc1)c1nc(-c2ccc([N+](=O)[O-])c(C(F)(F)F)c2)no1 (stereo not drawn)
Numeric Result: 5.5

Identify IC50 associated with the compound CC(O)(CSc1ccc(Br)cc1)c1nc(-c2ccc([N+](=O)[O-])c(C(F)(F)F)c2)no1 (stereo not drawn)
51

---

# Test system: PC-3
# Assay Overview: Cytotoxicity against human androgen-independent PC3 cells at 1 uM by MTT assay
# Type: functional
Catalogue of Activity readings, one per entry.
Please reply with the bare figure in % and do not write the unit itself.

Identify Activity associated with the compound CC(O)(CSc1ccc(Br)cc1)c1nc(-c2ccc([N+](=O)[O-])c(C(F)(F)F)c2)no1 (stereo unspecified)
31.77

Identify Activity associated with the compound CC(O)(CSc1ccc(F)cc1)c1nc(-c2ccc(F)c(Cl)c2)no1 (stereo unspecified)
40.77

Identify Activity associated with the compound CC(O)(CSc1ccccc1)c1nc(-c2ccc([N+](=O)[O-])c(C(F)(F)F)c2)no1 (stereo unspecified)
49.02

Identify Activity associated with the compound CC(O)(CSc1ccc(Cl)cc1)c1nc(-c2ccc(F)c(Cl)c2)no1 (stereo unspecified)
44.39

Identify Activity associated with the compound CC(O)(CSc1ccc(Cl)cc1)c1nc(-c2ccc([N+](=O)[O-])c(C(F)(F)F)c2)no1 (stereo unspecified)
39.61

Identify Activity associated with the compound CC(O)(CSc1ccc(F)cc1)c1nc(-c2ccc([N+](=O)[O-])c(C(F)(F)F)c2)no1 (stereo unspecified)
46.89

---

# Test system: DU-145
# Assay Overview: Cytotoxicity against human androgen-independent DU145 cells at 1 uM by MTT assay
# Assay type: functional
Measure: Activity (%)
Please reply with the bare figure in % and do not write the unit itself.

Reference set, count: 2
Compound: CC(O)(CSc1ccc(Br)cc1)c1nc(-c2ccc([N+](=O)[O-])c(C(F)(F)F)c2)no1 (stereo not drawn)
Unit: %
Activity: 48.71
--
Compound: CC(O)(CSc1ccc(Cl)cc1)c1nc(-c2ccc([N+](=O)[O-])c(C(F)(F)F)c2)no1 (stereo not drawn)
Unit: %
Activity: 48.93

Identify Activity associated with the compound CC(O)(CSc1ccccc1)c1nc(-c2ccc([N+](=O)[O-])c(C(F)(F)F)c2)no1 (stereo not drawn)
49.62

Numbers sourced from ChEMBL document CHEMBL1955722.
